system: human TLR9 (Homo sapiens, UniProt Q9NR96)
Sequence (Q9NR96 26-1032): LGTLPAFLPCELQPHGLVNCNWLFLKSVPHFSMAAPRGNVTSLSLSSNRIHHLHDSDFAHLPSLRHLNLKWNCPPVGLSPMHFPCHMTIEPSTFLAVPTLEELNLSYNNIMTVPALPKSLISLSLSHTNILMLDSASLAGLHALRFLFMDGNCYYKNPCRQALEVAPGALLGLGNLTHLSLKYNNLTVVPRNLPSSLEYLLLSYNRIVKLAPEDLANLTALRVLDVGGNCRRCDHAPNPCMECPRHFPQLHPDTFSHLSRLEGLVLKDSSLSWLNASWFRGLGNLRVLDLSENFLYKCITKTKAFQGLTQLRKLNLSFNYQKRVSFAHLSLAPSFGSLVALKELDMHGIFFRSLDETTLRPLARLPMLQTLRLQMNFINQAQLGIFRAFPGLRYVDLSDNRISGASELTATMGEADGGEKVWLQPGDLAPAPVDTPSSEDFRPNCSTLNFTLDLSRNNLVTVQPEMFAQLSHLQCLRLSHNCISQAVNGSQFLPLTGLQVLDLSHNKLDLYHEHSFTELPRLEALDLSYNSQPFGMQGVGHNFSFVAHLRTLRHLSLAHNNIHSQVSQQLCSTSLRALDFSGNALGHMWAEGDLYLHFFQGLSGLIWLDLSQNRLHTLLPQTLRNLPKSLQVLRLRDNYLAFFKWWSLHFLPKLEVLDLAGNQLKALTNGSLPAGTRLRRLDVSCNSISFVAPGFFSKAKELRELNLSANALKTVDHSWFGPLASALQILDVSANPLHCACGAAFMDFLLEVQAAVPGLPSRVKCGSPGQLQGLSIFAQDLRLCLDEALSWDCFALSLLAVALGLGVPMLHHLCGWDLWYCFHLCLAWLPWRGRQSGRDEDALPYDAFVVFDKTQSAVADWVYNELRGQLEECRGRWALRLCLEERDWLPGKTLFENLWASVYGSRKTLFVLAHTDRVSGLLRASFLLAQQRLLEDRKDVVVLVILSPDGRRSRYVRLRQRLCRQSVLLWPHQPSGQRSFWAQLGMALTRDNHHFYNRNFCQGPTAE
assay_details: TLR9 inhibition reporter assay (HEK-Blue cells, SEAP reporter)
measurement_context: HEK-Blue cells overexpressing human TLR9, stimulated with ODN2006 5 nM, 22 hour incubation
Description: TLR7/8/9 Inhibition Reporter Assays HEK-Blue™-cells (Invivogen) overexpressing human TLR7, TLR8 or TLR9 receptors were used for screening inhibitors of these receptors using an inducible SEAP (secreted embryonic alkaline phosphatase) reporter gene under the control of the IFN-β minimal promoter fused to five NF-κB and AP-1-binding sites. […]
Hi there, I'd appreciate the recorded pIC50 for every entry that follows.
Here pIC50 is given on a logarithmic scale as minus log10 of the concentration in mol/L.

Exercise: // pIC50 lookup, key: `Cc1nc(-c2ccc(N3CCN(C4CCOCC4)CC3)cc2)cc2c1cc(-c1ccc(S(C)(=O)=O)cc1)n2C`
Key: 6.15

Exercise: Query `CC(C)N1CCN(Cc2ccc(-c3cc4c(cc(-c5ccc(S(C)(=O)=O)cc5)n4C)c(N4CCOCC4)n3)cc2)CC1` next
Key: 6.37

Exercise: Similarly, `COCCN1CCC(O)(c2cc(F)c(-c3cc4c(cc(-c5ccc(S(C)(=O)=O)cc5)n4C)c(C)n3)cc2F)CC1` ?
Key: 6.27

Exercise: Another compound: `COc1ccc(-c2c(C)[nH]c3cnc(C4CCN(C5CCN(C(=O)C(C)C)CC5)CC4)cc23)cc1OC`
Key: 7.41

Exercise: For `COc1ccc(-c2cc3cnc(-c4ccc(N5CCN(C(C)C)CC5)nc4)cc3n2C)cc1OC` then?
Key: 7.14

Exercise: Same question, `Cc1nc(-c2cc(F)c(N3CCN(C4CCOCC4)CC3)cc2F)cc2c1cc(-c1ccc(S(C)(=O)=O)cc1)n2C` this time
Key: 6.17

Exercise: Query `Cc1nc(-c2cc(F)c(N3CCN(C4CCOCC4)CC3)c(F)c2)cc2c1cc(-c1ccc(S(C)(=O)=O)cc1)n2C` next
Key: 6.65

Exercise: Input `Cc1nc(-c2ccc(CN3C[C@H]4CC[C@@H]3CN4CC(C)(C)CO)cc2)cc2c1cc(-c1ccc(S(C)(=O)=O)cc1)n2C`
Key: 7.17

Exercise: Query `COc1ccc(-c2cc3cnc(C4CCN(C5CCN(C(=O)c6ccccc6)CC5)CC4)cc3n2C)cc1OC` next
Key: 8.05

Exercise: Consider next the compound `Cc1nc(-c2ccc(C3(O)CCN(C(C)C)CC3)c(F)c2)cc2c1cc(-c1ccc(S(C)(=O)=O)cc1)n2C` in the same way.
Key: 7.74

Exercise: Same question, `COc1ccc(-c2c(C)[nH]c3cnc(C4CCN(C(=O)CN5CCCCC5)CC4)cc23)cc1OC` this time
Key: 7.08

Exercise: Try this compound next: `COc1ccc(-c2cc3cnc(-c4ccc(N5CCN(C(C)=O)CC5)cc4)cc3n2C)cc1OC`
Key: 6.24

Exercise: Another compound to check: CCN1C2CCC1CC(O)(c1ccc(-c3cc4c(cc(-c5ccc(S(C)(=O)=O)cc5)n4C)c(C)n3)cc1F)C2 (stereo not drawn)
Key: 6.94

Exercise: Can you check `COCCN1CCN(c2ccc(-c3cc4c(cc(-c5ccc(S(C)(=O)=O)cc5)n4C)c(C)n3)cc2F)CC1` next?
Key: 6.87

Exercise: Now consider `COc1ccc(-c2c(C)n(C)c3cnc(C4CCN(C5CCN(C(=O)c6ccccc6)CC5)CC4)cc23)cc1OC` .
Key: 6.89

Exercise: Input `COc1ccc(-c2cc3cnc(-c4ccc(N5CCN(C)CC5)cc4)cc3n2C)cc1OC`
Key: 7.35

Exercise: `Cc1nc(-c2ccc(N3CCN(C4CC4)CC3)cc2)cc2c1cc(-c1ccc(S(C)(=O)=O)cc1)n2C` , same question.
Key: 6.98

Exercise: Here is the next compound: `Cc1nc(-c2ccc(N3CCN(Cc4ccc(Br)cc4)CC3)cc2)cc2c1cc(-c1ccc(S(C)(=O)=O)cc1)n2C`
Key: 6.82
